- Study System: T1, CD9-ECL2(CD9 extracellular domain 2)-Fc antigen (human)
- T1 construct: also called CD9-ECL2-Fc; CD9-EC2-Fc
- T1 sequence (chain, as listed by the source limits assumed): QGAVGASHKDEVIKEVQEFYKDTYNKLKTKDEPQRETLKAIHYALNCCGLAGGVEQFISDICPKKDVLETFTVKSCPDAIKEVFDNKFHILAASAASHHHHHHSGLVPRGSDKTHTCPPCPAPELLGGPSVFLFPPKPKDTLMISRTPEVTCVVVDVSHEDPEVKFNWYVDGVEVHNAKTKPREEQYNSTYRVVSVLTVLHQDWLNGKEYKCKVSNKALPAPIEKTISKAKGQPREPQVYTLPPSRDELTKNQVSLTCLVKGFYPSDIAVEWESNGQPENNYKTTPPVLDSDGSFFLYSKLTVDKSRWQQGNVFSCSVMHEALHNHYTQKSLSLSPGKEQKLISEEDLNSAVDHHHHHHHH
- Measurement Description: phage ELISA; CD9 OD/a-myc OD
Test Readout: Ratio

Look over these answered cases.
Q: Which Ratio is reported for this binder? CD9 8A scFv monoclonal phage antibody (scFv, V domains shown, also called 8A3) VH: QVQLVQSGAEVKKPGASVKLSCKASGYTFSSYWMHWVRQAPGQRLEWMGEINPGNGHTNYNEKFKSRVTITVGKSASTAYMELSSLRSEDTAVYYCAREGVSAAGGLDHWGQGTQITVSS VL: DIQMTQSPSSLSVSTGARVTITCRASQGISNYLAWYQQKPGKAPKLLIYAASTLQSGVPSRFSGSGSGTDFTLTISSLQPEDFATYYCQQLNSYPLTFGGGTKVEIK
Result: 0.73

Q: Request: CD9 12F scFv monoclonal phage antibody (scFv, V domains shown, also called 12F3) VH: QVQLVQSGAEVKKPGASVKLSCKASGYTFSSYWMHWVRQAPGQRLEWMGEINPGNGHTNYNEKFKSRVTITVDKSASTAYMELSSLRSEDTAVYYCARELEEGAFDIWGQGTMVTVSS VL: DIQMTQSPSSLPASVGDRVTITCRASQGISSYLAWYQQKPGKAPKLLIYAASTLQSGVPSRFSGSGSGTDFTLTISSLQPEDFATYYCQQYDSVPLTFGGGTKVEIK
Result: 0.669

Q: Request: CD9 3F3 scFv monoclonal phage antibody (scFv, V domains shown, not shown: small tags and cut ends) VH: QMQLVQSGAEVKKPGASVKLSCKASGYTFSSYWMHWVRQAPGQRLEWMGEINPGNGHTNYNEKFKSRVTITVDKSASTAYMELSSLRSEDTAVYYCGQDNSPPRIWGQGTLITVSS VL: QSALTQPASVSGSPGQSITISCTGTSSDVGGYNHVSWYQQHPGKAPKLLIYDVSNRPSGVSGRFSGSKSGNTASLTISGLQAEDEANYYCGSYTSSSTFEVFGTGTKVTVL
Result: 0.918

Read the next record carefully.
Q: Which Ratio is reported for this binder? CD9 11G scFv monoclonal phage antibody (scFv, V domains shown, also called 11G3) VH: QVQLVQSGAEVKKPGASVKLSCKASGYTSSSYWMHWVRQAPGQRLEWMGEINPGNGHTNYNEKFKSRVTITVDKSASTAYMELSSLRSEDTAVYYCGQDNSPPRIWGQGTLVTVSS VL: DIQMTQSPSTLSASVGDRVTITCRASQTIGNLAWFQQKPGKAPKLLIYKASSLESGVPSRFSGSGSGTEFTLTISSLQPDDFATYYCQQYSDYWTFGQGTKVEIK
Result: 1.23
